Biological target: HCV polymerase (NS5B) type 1a (Hepatitis C virus genotype 1a, UniProt P26664)
Construct: made in house; host or cells: Escherichia coli (by the 'similar method' of the 1b enzyme)
Assay: Assay of enzyme (HCV polymerase) inhibitory activity, type 1a enzyme
Type: biochemical, HCV type 1a (cloned from the blood of patients)
Settings: HCV polymerase inhibitory activity (IC50), 1a, type 1a enzyme 1.5 μg/ml, 25° C., 60 min
pIC50: −log10 of the molar value.

{"columns": ["COMPOUND", "pIC50"],
 "data": [
  ["CC(=O)N1CCN(S(=O)(=O)c2ccc(OC(F)(F)F)cc2)[C@@H](C(=O)NCC2CCCCC2)C1", "< 6.00"],
  ["CN(C)c1ccc(CNC(=O)C2CN(C(=O)Cc3ccccc3)CCN2S(=O)(=O)c2ccc(I)cc2)cc1 (centres unmarked)", "< 6.00"],
  ["CCCc1ccc(CNC(=O)[C@H]2CN(c3nc4c(s3)CNCC4)CCN2S(=O)(=O)c2ccc(OC(F)(F)F)cc2)cc1", "> 7.00"],
  ["CC(C)(C)c1ccc(CNC(=O)[C@H]2CN(c3cnc4c(n3)NC(=O)OC4)CCN2S(=O)(=O)c2ccc(OC(F)(F)F)cc2)cc1", "> 7.00"],
  ["CC(C)c1ccc(S(=O)(=O)N2CCN(C(N)=S)CC2C(=O)NCc2ccc(C(F)(F)F)cc2)cc1 (centres unmarked)", "< 6.00"]
]}

* * *

As shown below, each of these compounds has a reported pIC50 value.
Biological target: HCV polymerase (NS5B) type 1a (Hepatitis C virus genotype 1a, UniProt P26664)
Construct: made in house; host or cells: Escherichia coli (by the 'similar method' of the 1b enzyme)
Assay: Assay of enzyme (HCV polymerase) inhibitory activity, type 1a enzyme
Format: biochemical, HCV type 1a (cloned from the blood of patients)
Conditions: HCV polymerase inhibitory activity (IC50), 1a, type 1a enzyme 1.5 μg/ml, 25° C., 60 min
pIC50: −log10 of the molar value.

{"columns": ["COMPOUND", "pIC50"],
 "data": [
  ["CCC(F)(F)c1ccc(CNC(=O)[C@H]2CN(c3cnc(CO)c(N)n3)CCN2S(=O)(=O)c2ccc(OC(F)(F)F)cc2)cc1", "6.00 to 7.00"],
  ["CC(=O)N1CCN(S(=O)(=O)c2ccc(Br)c(F)c2)[C@@H](C(=O)NCc2ccc(C(C)C)cc2)C1", "6.00 to 7.00"],
  ["COc1cccc(CNC(=O)C2CN(C(C)=O)CCN2S(=O)(=O)c2ccc(C(C)C)cc2)c1 (stereo not drawn)", "< 6.00"]
]}

* * *

Target: HCV polymerase (NS5B) type 1b (Hepatitis C virus genotype 1b, UniProt P26663)
Construct: a region encoding NS5B (J Virol 1991 March, 65(3), 1105-13, 544 amino acids after deletion of 47 amino acids on the C-terminal); 6xHis (C); made in house; host or cells: Escherichia coli
Assay: Assay of enzyme (HCV polymerase) inhibitory activity, type 1b enzyme
Format: biochemical, HCV BK strain (type 1b)
Conditions: HCV polymerase inhibitory activity (IC50), 1b, type 1b enzyme 0.5 μg/ml, 25° C., 60 min
pIC50: −log10 of the molar value.
MEASUREMENT_NAME: pIC50

{"columns": ["CPD_SMILES", "EXPERIMENTAL_SYSTEM", "RESULT"],
 "data": [
  ["CCC(F)(F)c1ccc(CNC(=O)[C@H]2CN(c3nc4nsnc4nc3O)CCN2S(=O)(=O)c2ccc(OC(F)(F)F)cc2)cc1", "HCV polymerase (NS5B) type 1b (Hepatitis C virus genotype 1b, UniProt P26663)", "6.00 to 7.00"],
  ["CCCOc1ccc(S(=O)(=O)N2CCN(C(C)=O)C[C@@H]2C(=O)NCc2ccc(C(C)C)cc2)cc1", "HCV polymerase (NS5B) type 1b (Hepatitis C virus genotype 1b, UniProt P26663)", "6.00 to 7.00"],
  ["O=C(NCc1ccc(Br)cc1)[C@H]1CN(c2cnc3cncnc3n2)CCN1S(=O)(=O)c1ccc(OC(F)(F)F)cc1", "HCV polymerase (NS5B) type 1b (Hepatitis C virus genotype 1b, UniProt P26663)", "> 7.00"],
  ["CC(C)c1ccc(CNC(=O)[C@H]2CN(c3nc(C(=O)O)cs3)CCN2S(=O)(=O)c2ccc(C(F)(F)F)cc2)cc1", "HCV polymerase (NS5B) type 1b (Hepatitis C virus genotype 1b, UniProt P26663)", "6.00 to 7.00"],
  ["CC(=O)N1CCN(S(=O)(=O)c2ccc(OC(F)(F)F)c(CCC(=O)O)c2)[C@@H](C(=O)NCc2ccc(C(C)C)cc2)C1", "HCV polymerase (NS5B) type 1b (Hepatitis C virus genotype 1b, UniProt P26663)", "6.00 to 7.00"]
]}

* * *

Target: HCV polymerase (NS5B) type 1a (Hepatitis C virus genotype 1a)
Construct: made in house; host or cells: Escherichia coli (by the 'similar method' of the 1b enzyme)
Experiment: Assay of enzyme (HCV polymerase) inhibitory activity, type 1a enzyme
Assay type: biochemical, HCV type 1a (cloned from the blood of patients)
Conditions: HCV polymerase inhibitory activity (IC50), 1a, type 1a enzyme 1.5 μg/ml, 25° C., 60 min
pIC50: −log10 of the molar value.
MEASUREMENT_NAME: pIC50

{"columns": ["COMPOUND", "EXPERIMENTAL_SYSTEM", "RESULT"],
 "data": [
  ["CC(C)c1ccc(CNC(=O)[C@H]2CN(C(=O)Cc3nnn[nH]3)CCN2S(=O)(=O)c2ccc(C(F)(F)F)cc2)cc1", "HCV polymerase (NS5B) type 1a (Hepatitis C virus genotype 1a)", "< 6.00"],
  ["CCCc1ccc(CNC(=O)[C@H]2CN(C(=O)N(C)c3ccncc3)CCN2S(=O)(=O)c2ccc(OC(F)(F)F)cc2)cc1", "HCV polymerase (NS5B) type 1a (Hepatitis C virus genotype 1a)", "< 6.00"],
  ["CNC(=O)c1sc(N2CCN(S(=O)(=O)c3ccc(OC(F)(F)F)cc3)[C@@H](C(=O)NCc3ccc(C(C)C)cc3)C2)nc1C", "HCV polymerase (NS5B) type 1a (Hepatitis C virus genotype 1a)", "> 7.00"],
  ["CC(=O)N1CCN(S(=O)(=O)c2ccc(C(C)C)cc2)C(C(=O)NCc2ccc(N3CCOCC3)cc2)C1 (stereo not drawn)", "HCV polymerase (NS5B) type 1a (Hepatitis C virus genotype 1a)", "< 6.00"],
  ["CCCc1ccc(CNC(=O)[C@H]2CN(c3ccc(C(=O)O)nc3)CCN2S(=O)(=O)c2ccc(OC(F)(F)F)cc2)cc1", "HCV polymerase (NS5B) type 1a (Hepatitis C virus genotype 1a)", "> 7.00"],
  ["CCOC(=O)COc1ccc(NC(=O)N2CCN(S(=O)(=O)c3ccc(C(F)(F)F)cc3)[C@@H](C(=O)NCc3ccc(C(C)C)cc3)C2)cc1", "HCV polymerase (NS5B) type 1a (Hepatitis C virus genotype 1a)", "< 6.00"],
  ["COc1ccccc1CC(=O)N1CCN(S(=O)(=O)c2ccc(C(F)(F)F)cc2)[C@@H](C(=O)NCc2ccc(C(C)C)cc2)C1", "HCV polymerase (NS5B) type 1a (Hepatitis C virus genotype 1a)", "< 6.00"],
  ["O=C(NCc1ccc(C2CC2)cc1)[C@H]1CN(c2cnc3cncnc3n2)CCN1S(=O)(=O)c1ccc(OC(F)(F)F)cc1", "HCV polymerase (NS5B) type 1a (Hepatitis C virus genotype 1a)", "> 7.00"],
  ["CC(C)c1ccc(CNC(=O)[C@H]2CN(C(=O)Nc3ccncn3)CCN2S(=O)(=O)c2ccc(C(F)(F)F)cc2)cc1", "HCV polymerase (NS5B) type 1a (Hepatitis C virus genotype 1a)", "> 7.00"],
  ["CSc1ccc(CNC(=O)[C@H]2CN(C(C)=O)CCN2S(=O)(=O)c2ccc(C(C)C)cc2)cc1", "HCV polymerase (NS5B) type 1a (Hepatitis C virus genotype 1a)", "6.00 to 7.00"],
  ["COC(=O)Cc1cc(S(=O)(=O)N2CCN(C(C)=O)C[C@@H]2C(=O)NCc2ccc(C(C)C)cc2)ccc1OC", "HCV polymerase (NS5B) type 1a (Hepatitis C virus genotype 1a)", "< 6.00"],
  ["CC(=O)N1CCN(S(=O)(=O)c2ccc(-c3ccc(Cl)cc3)cc2)C(C(=O)NCc2ccc(C(F)(F)F)cc2)C1 (stereo not drawn)", "HCV polymerase (NS5B) type 1a (Hepatitis C virus genotype 1a)", "< 6.00"]
]}

* * *

Collected IC50 values appear next to each entry.
Target: HCV polymerase (NS5B) type 1a (Hepatitis C virus genotype 1a)
Construct: made in house; host or cells: Escherichia coli (by the 'similar method' of the 1b enzyme)
Test: Assay of enzyme (HCV polymerase) inhibitory activity, type 1a enzyme
Assay type: biochemical, HCV type 1a (cloned from the blood of patients)
Conditions: HCV polymerase inhibitory activity (IC50), 1a, type 1a enzyme 1.5 μg/ml, 25° C., 60 min
Experimental: The evaluation of the HCV polymerase inhibitory activity of the compound of the present invention is explained in the following. This polymerase is an enzyme coded for by the non-structural protein region called NS5B on the genome RNA of HCV. i) Preparation of Enzyme (HCV Polymerase) […] The HCV polymerase inhibitory activity (IC50) of the compound of the present invention was calculated from the values of radioactivity of the enzyme reaction with and without the test substance. […]

{"columns": ["COMPOUND", "IC50"],
 "data": [
  ["CCCc1ccc(S(=O)(=O)N2CCN(c3ncc(C(=O)O)s3)C[C@@H]2C(=O)NCc2ccc(C(C)C)cc2)cc1", "< 100 nM"],
  ["CC(C)(C)c1ccc(CNC(=O)[C@H]2CN(c3nc4nn[nH]c(=O)c4s3)CCN2S(=O)(=O)c2ccc(OC(F)(F)F)cc2)cc1", "< 100 nM"],
  ["CC(=O)N1CCN(S(=O)(=O)c2ccc(C(C)C)cc2)[C@@H](C(=O)NCCc2cccc(Cl)c2)C1", "> 1000 nM"],
  ["CC(=O)N1CCN(S(=O)(=O)c2ccc(C(C)C)cc2)[C@@H](C(=O)NCc2ccc(C3CC3)cc2)C1", "100 to 1000 nM"],
  ["CCC(F)(F)c1ccc(CNC(=O)[C@H]2CN(C(=O)Nc3nc(C(C)(C)O)cs3)CCN2S(=O)(=O)c2ccc(OC(F)(F)F)cc2)cc1", "> 1000 nM"],
  ["CCC(F)(F)c1ccc(CNC(=O)[C@H]2CN(C(=O)n3nc(C)nc3N)CCN2S(=O)(=O)c2ccc(OC(F)(F)F)cc2)cc1", "> 1000 nM"],
  ["CCCc1ccc(CNC(=O)[C@H]2CN(C(C)=O)CCN2S(=O)(=O)c2ccc(C(C)C)cc2)cc1", "< 100 nM"],
  ["CCC(F)(F)c1ccc(CNC(=O)[C@H]2CN(c3cnc(C(N)=O)cn3)CCN2S(=O)(=O)c2ccc(OC(F)(F)F)cc2)cc1", "< 100 nM"],
  ["CC(C)c1ccc(CNC(=O)[C@H]2CN(C(=O)NS(=O)(=O)c3ccccc3)CCN2S(=O)(=O)c2ccc(C(F)(F)F)cc2)cc1", "> 1000 nM"],
  ["CC(C)c1ccc(CNC(=O)[C@H]2CN(c3ncn[nH]3)CCN2S(=O)(=O)c2ccc(C(F)(F)F)cc2)cc1", "> 1000 nM"],
  ["Cc1nc(N2CCN(S(=O)(=O)c3ccc(C(F)(F)F)cc3)[C@@H](C(=O)NCc3ccc(C(C)C)cc3)C2)sc1C(=O)OC(C)(C)C", "> 1000 nM"],
  ["COCc1ccc(CNC(=O)[C@H]2CN(c3nc(C)c(C(=O)O)s3)CCN2S(=O)(=O)c2ccc(OC(F)(F)F)cc2)cc1", "< 100 nM"],
  ["CCC(F)(F)c1ccc(CNC(=O)[C@H]2CN(C(=O)Cn3nnc(-c4ccccc4)n3)CCN2S(=O)(=O)c2ccc(OC(F)(F)F)cc2)cc1", "< 100 nM"],
  ["CC(=O)N1CCN(S(=O)(=O)c2ccc(C(C)C)cc2)[C@@H](C(=O)NCc2ccc(C3(CO)CC3)cc2)C1", "> 1000 nM"],
  ["CC(C)(C)c1ccc(CNC(=O)[C@H]2CN(c3ncc(CO)s3)CCN2S(=O)(=O)c2ccc(OC(F)(F)F)cc2)cc1", "< 100 nM"],
  ["CC(=O)N1CCN(S(=O)(=O)c2ccc(C(C)C)cc2)C(C(=O)NCc2ccc(N3CCCCC3)cc2)C1 (stereo not drawn)", "> 1000 nM"],
  ["COC(=O)c1cccc(NC(=O)N2CCN(S(=O)(=O)c3ccc(C(F)(F)F)cc3)[C@@H](C(=O)NCc3ccc(C(C)C)cc3)C2)c1", "100 to 1000 nM"],
  ["CC(=O)N1CCN(S(=O)(=O)c2ccc(C(C)C)cc2)[C@@H](C(=O)NCCN2CCCCC2)C1", "> 1000 nM"],
  ["CC(=O)N1CCN(S(=O)(=O)c2ccc(C(C)C)cc2)C(C(=O)NCc2ccc(Oc3ccccc3)cc2)C1 (stereo not drawn)", "> 1000 nM"],
  ["CC(=O)N1CCN(S(=O)(=O)c2ccc(Oc3ccc(Cl)cc3)cc2)C(C(=O)NCc2ccc(C(F)(F)F)cc2)C1 (stereo not drawn)", "> 1000 nM"],
  ["CCCc1ccc(CNC(=O)[C@H]2CN(c3nc(C)c(C(N)=O)s3)CCN2S(=O)(=O)c2ccc(OC(F)(F)F)cc2)cc1", "< 100 nM"]
]}
